These entries and their values trace back to ChEMBL document CHEMBL4359907.

- Test system: Fusarium graminearum
- run-description: Antifungal activity against Fusarium graminearum B4-5A incubated for 24 to 36 hrs by two fold dilution method
- Type: functional
Each item that follows carries a reported MIC.

{"columns": ["compound", "experimental-target", "MIC"],
 "data": [
  ["NC[C@H]1O[C@H](O[C@H]2[C@H](O)[C@@H](O[C@H]3O[C@H](CO)[C@@H](O)[C@H](N)[C@H]3O)[C@H](N)C[C@@H]2N)[C@H](O)[C@@H](O)[C@@H]1O [KANAMYCIN]", "Fusarium graminearum", "≥ 256 µg/mL"],
  ["CCCCCCCCS(=O)(=O)OC[C@H]1O[C@H](O[C@@H]2[C@@H](O)[C@H](O[C@H]3O[C@H](CN)[C@@H](O)[C@H](O)[C@H]3O)[C@@H](N)C[C@H]2N)[C@H](O)[C@@H](N)[C@@H]1O", "Fusarium graminearum", "8 µg/mL"],
  ["CCCCCCSC[C@H]1O[C@H](O[C@@H]2[C@@H](O)[C@H](O[C@H]3O[C@H](CN)[C@@H](O)[C@H](O)[C@H]3O)[C@@H](N)C[C@H]2N)[C@H](O)[C@@H](N)[C@@H]1O.Cl.Cl.Cl.Cl", "Fusarium graminearum", "256 µg/mL"]
]}
